B1: E3 ubiquitin-protein ligase NEDD4, residues 836 to 881; numbered along this chain, P46934 (parent)
chain: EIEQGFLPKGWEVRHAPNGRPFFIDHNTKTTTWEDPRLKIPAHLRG

# Variants of: B1
# assay-procedure: abundance fitness (aPCA) (normalised: wild type 0, dead -1); higher = more abundant; growth selection in yeast, the domain comes from the species named
# condition-label: Homo sapiens
For each of the variants below, state its abundance fitness.
Number only, no unit.

Could you please provide reported abundance fitness for T30V ? Thanks!
-0.202

Give a short answer stating reported abundance fitness for L44D .
0.116

Complete the entry with abundance fitness for F23H
-0.656

Output measured abundance fitness for this item: D25W
-0.86

Name the recorded abundance fitness of the item P21V in your answer.
-0.149

Look up and report measured abundance fitness for this entry: N27P
-0.935

Determine its reported abundance fitness: K29G
-0.002

Specify abundance fitness for R20T and stop.
-0.207

Identify abundance fitness associated with the variant H26A
-0.69

Item N27G : provide abundance fitness
-0.382

Tell me measured abundance fitness for P21I please.
0.033

Given the variant E34D , write its reported abundance fitness.
-0.312

// fetch abundance fitness given entry I24A
-0.818

Quote abundance fitness reported for I40T please.
0.04

Answer with reported abundance fitness of F22A
-0.688

Respond only with abundance fitness recorded for T30Y
-0.818

Report measured abundance fitness; entry is H26R
-0.45

For K29V , write its abundance fitness.
-0.82

Find the measured abundance fitness of D25H and report it.
-0.394

Identify abundance fitness associated with the variant T28H
-0.338

Tell me abundance fitness reported for G19T
-1.05

Give abundance fitness for R20I
-0.257
